target: Bcat-Halo (UniProt P35222); experiment: NanoBRET in HEK293 cells, Bcat-Halo/TCF4-Luc (competitor TCF4-Luc); IC50
Sequence (P35222 whole entry): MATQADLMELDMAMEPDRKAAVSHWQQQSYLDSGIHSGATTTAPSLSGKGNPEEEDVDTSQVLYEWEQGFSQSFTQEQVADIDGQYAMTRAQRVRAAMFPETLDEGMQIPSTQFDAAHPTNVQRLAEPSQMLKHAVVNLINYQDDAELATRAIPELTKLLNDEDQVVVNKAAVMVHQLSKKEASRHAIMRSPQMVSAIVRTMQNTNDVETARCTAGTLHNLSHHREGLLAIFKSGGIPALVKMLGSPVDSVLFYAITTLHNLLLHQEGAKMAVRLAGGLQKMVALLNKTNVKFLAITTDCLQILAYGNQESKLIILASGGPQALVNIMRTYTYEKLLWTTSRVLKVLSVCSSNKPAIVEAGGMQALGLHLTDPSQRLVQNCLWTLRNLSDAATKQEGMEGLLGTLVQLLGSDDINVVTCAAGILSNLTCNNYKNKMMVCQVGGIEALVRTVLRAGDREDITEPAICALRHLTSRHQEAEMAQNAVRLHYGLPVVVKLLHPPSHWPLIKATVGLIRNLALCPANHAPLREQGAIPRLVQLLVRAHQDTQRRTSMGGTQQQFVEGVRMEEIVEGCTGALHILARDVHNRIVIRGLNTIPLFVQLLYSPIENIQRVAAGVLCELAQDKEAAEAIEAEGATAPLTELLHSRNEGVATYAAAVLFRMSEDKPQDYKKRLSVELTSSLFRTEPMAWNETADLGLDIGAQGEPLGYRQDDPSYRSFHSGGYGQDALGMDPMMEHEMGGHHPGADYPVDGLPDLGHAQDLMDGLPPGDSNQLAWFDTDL
Starred links: 1 amine or outer side, 2 acyl side, 3 side chain; linkers in the order of their positions; H or OH if unused. Positions of bridges follow the written chain, without caps; N, C: chain ends. Non-standard residues stand in square brackets, D forms with d. Primed or numbered codes have the meaning given here. PyrS2 = (S)-3-amino-1-((pent-4-en-1-yloxy)carbonyl)pyrrolidine-3-carboxylic acid, C=CCCCOC(=O)N1CC[C@@](N[*:1])(C(=O)[*:2])C1; B5(13) = 2-amino-2-(pent-4-en-1-yl)hept-6-enoic acid (two alkene chains), C=CCCCC(CCCC=C)(N[*:1])C(=O)[*:2]; Bta = N[C@@H](Cc1csc2ccccc12)C(=O)O; αAllylPro = C=CC[C@@]1(C(=O)O)CCCN1; tBuAla = CC(C)(C)C[C@H](N)C(=O)O
measured.metric: IC50 (µM)
Record the value in µM, omitting the unit from your answer.

# IC50 lookup, item Ac-[αAllylPro]D[tBuAla][B5(13)]DDAAFN[PyrS2]F[Bta]H-NH2 (staple 1-4, 4-11) [I-777]
14.4
